# Measurement target: ENaC (Homo sapiens, UniProt P37088+P51168+P51170)
# Construct: Primary NHBE cells were isolated from bronchi of normal healthy patients; endogenous in cells; host or cells: primary normal human bronchial epithelial (NHBE) cells, differentiated at air-liquid interface
# Sequence (P37088 whole entry): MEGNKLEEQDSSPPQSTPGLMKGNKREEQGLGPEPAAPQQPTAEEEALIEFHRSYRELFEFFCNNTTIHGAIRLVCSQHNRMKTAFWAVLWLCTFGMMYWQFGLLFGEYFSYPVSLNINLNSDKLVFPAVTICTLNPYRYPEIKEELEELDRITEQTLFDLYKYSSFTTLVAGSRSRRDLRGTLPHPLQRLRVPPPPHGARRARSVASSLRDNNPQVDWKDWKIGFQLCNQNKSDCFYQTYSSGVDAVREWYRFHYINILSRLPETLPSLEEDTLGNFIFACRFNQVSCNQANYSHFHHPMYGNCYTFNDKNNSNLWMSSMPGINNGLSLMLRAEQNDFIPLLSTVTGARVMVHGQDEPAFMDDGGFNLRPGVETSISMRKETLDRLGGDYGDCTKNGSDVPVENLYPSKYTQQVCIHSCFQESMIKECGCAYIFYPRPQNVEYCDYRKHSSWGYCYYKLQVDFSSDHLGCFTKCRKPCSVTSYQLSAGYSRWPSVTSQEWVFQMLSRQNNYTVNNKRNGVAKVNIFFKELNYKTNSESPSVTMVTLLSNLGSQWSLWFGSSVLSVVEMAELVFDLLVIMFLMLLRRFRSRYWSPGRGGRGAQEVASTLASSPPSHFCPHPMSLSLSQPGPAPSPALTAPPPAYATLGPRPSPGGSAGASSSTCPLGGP
# Sequence (P51168 whole entry): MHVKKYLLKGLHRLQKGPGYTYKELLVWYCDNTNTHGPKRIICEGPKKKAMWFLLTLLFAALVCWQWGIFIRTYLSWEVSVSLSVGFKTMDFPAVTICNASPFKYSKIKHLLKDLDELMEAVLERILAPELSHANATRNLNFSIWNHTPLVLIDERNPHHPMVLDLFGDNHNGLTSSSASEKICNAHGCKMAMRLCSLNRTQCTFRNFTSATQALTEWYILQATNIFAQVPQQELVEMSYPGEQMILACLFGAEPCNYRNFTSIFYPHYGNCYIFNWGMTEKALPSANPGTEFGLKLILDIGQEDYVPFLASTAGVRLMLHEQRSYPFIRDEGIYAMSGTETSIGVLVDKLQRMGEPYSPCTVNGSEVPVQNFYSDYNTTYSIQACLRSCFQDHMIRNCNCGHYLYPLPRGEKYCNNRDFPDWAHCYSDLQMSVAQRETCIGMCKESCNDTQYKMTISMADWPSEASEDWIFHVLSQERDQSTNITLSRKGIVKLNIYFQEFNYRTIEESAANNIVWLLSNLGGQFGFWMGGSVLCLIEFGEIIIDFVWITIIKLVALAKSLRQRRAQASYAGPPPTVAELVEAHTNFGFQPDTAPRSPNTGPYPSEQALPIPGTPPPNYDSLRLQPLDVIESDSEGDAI
# Sequence (P51170 whole entry): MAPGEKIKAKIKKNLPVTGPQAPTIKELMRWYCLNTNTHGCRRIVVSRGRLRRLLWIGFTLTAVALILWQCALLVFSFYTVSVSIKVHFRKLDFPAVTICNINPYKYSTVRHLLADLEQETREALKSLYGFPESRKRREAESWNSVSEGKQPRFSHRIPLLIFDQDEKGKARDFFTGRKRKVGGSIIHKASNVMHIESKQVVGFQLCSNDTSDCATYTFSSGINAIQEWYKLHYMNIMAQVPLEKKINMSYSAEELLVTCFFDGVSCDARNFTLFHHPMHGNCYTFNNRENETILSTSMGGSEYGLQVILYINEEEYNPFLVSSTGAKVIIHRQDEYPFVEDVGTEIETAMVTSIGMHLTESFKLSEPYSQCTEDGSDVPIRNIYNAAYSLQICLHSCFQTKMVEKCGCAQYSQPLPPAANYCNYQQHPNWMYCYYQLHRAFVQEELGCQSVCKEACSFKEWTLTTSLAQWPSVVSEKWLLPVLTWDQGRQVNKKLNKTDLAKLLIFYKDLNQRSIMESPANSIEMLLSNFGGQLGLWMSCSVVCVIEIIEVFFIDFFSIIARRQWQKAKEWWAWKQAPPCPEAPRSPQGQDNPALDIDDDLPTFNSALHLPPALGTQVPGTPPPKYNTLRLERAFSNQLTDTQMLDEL
# Measurement notes: ENaC inhibition in NHBE cell monolayers, Ussing epithelial voltage clamp (short circuit current)
# Assay type: cell-based
# Conditions used: NHBE cell monolayers, Ussing chamber, apical addition, 35±2° C.; read-out: IC50 for the ENaC inhibition
Where a SMILES comes first, the peptide text is derived from it. [ ]: non-standard residue; d: D form. The star is where a group is joined. X2 = NC(=NC(=O)c1nc(Cl)c(N)nc1N)NCCCCN1C(=O)CC(*)C1=O; Ahx = NCCCCCC(=O)O
Each entry below lists one item and its recorded IC50 value.
State the answer as a number, implicitly in nM.

>  <Compound>
CC(=O)N[C@@H](CCCCn1cc(CCCCCNC(N)=NC(=O)c2nc(Cl)c(N)nc2N)nn1)C(=O)NCCCCCC(=O)N[C@H](C(=O)N[C@@H](CO)C(=O)N[C@@H](CCCCN)C(=O)N[C@@H](CCCNC(=N)N)C(=O)N[C@@H](CCCNC(=N)N)C(N)=O)C(C)C [Conjugate 6, Ac-(AmilCC1-AzK)-Ahx-VSKRR-NH2]

>  <IC50 [nM]>
90

$$$$

Request: Which IC50 value is on record for CC(=O)N[C@@H](Cc1cn(CCCCNC(N)=NC(=O)c2nc(Cl)c(N)nc2N)nn1)C(=O)NCCCCCC(=O)N[C@H](C(=O)N[C@@H](CO)C(=O)N[C@@H](CCCCN)C(=O)N[C@@H](CCCNC(=N)N)C(=O)N[C@@H](CCCNC(=N)N)C(N)=O)C(C)C [Conjugate 9, Ac-(AmilCC2-Pgy)-Ahx-VSKRR-NH2] ?
Result: 100

Request: Try CC(=O)N[C@@H](CSC1CC(=O)N(CCCCNC(N)=NC(=O)c2nc(Cl)c(N)nc2N)C1=O)C(=O)NCCCCCC(=O)N[C@H](C(=O)N[C@@H](CO)C(=O)N[C@@H](CCCCN)C(=O)N[C@@H](CCCNC(=N)N)C(=O)N[C@@H](CCCNC(=N)N)C(N)=O)C(C)C (stereo partly shown) [Conjugate 12, Ac-(AmilTC-C)-Ahx-VSKRR-NH2] (Ac-C(X2)[Ahx]VSKRR-NH2) next.
Result: 80

Request: Query CC[C@H](C)[C@H](NC(=O)[C@H](Cc1ccc(O)cc1)NC(=O)[C@@H]1C[C@@H](O)CN1C(=O)[C@H](C)NC(=O)[C@H](CC(C)C)NC(=O)[C@H](C)NC(=O)CCCCCNC(=O)[C@H](CCCCNC(N)=NC(=O)c1nc(Cl)c(N)nc1N)NC(C)=O)C(N)=O [Conjugate 1, Ac-(AmilAC)K-(Ahx)-ALA(Hyp)YI-NH2] (HELM PEPTIDE1{[ac].[NC(=NC(=O)c1nc(Cl)c(N)nc1N)NCCCC[C@H](N[*:1])C(=O)[*:2]].[O=C(CCCCCN[*:1])[*:2]].A.L.A.[Hyp].Y.I.[am]}$$$$V2.0) next
Result: 290

Values compiled from patent US20240374585A1.
